# maps each entry to its MBEC2
# Tested on: Candida albicans
# Run description: Antibiofilm activity against Candida albicans SC5314 after 24 hrs by Cell-Titer Blue assay
# Format: functional
Dear colleague, please return just the value in µM, with no unit written.

Consider the reported MBEC2 for these compounds:
Cc1cc(/C=C/c2ccc3cc(N(C)C)ccc3[n+]2C)c(C)n1-c1ccccc1.Cc1cc(/C=C/c2ccc3cc(N(C)C)ccc3[n+]2C)c(C)n1-c1ccccc1.O=C([O-])c1cc2ccccc2c(Cc2c(O)c(C(=O)[O-])cc3ccccc23)c1O [PYRVINIUM PAMOATE]: 3.9
Oc1c(Br)cc(Br)c2cccnc12: 1.2
O=[N+]([O-])c1ccc(O)c2ncccc12: 3.1
CN(C)c1ccc(C(=C2C=CC(=[N+](C)C)C=C2)c2ccc(N(C)C)cc2)cc1.[Cl-]: 1.5

# next compound below
Q: Can you look up MBEC2 on Candida albicans for Oc1c(Cl)cc(Cl)c(Cl)c1Cc1c(O)c(Cl)cc(Cl)c1Cl ?
Result: 9.3
